Below is a list of entries, each paired with its recorded inhibition value.
# assayed_system: Bifunctional protein GlmU (Mycobacterium tuberculosis (strain ATCC 25618 / H37Rv)) (UniProt P9WMN3)
# Sequence (P9WMN3 whole entry, looked up): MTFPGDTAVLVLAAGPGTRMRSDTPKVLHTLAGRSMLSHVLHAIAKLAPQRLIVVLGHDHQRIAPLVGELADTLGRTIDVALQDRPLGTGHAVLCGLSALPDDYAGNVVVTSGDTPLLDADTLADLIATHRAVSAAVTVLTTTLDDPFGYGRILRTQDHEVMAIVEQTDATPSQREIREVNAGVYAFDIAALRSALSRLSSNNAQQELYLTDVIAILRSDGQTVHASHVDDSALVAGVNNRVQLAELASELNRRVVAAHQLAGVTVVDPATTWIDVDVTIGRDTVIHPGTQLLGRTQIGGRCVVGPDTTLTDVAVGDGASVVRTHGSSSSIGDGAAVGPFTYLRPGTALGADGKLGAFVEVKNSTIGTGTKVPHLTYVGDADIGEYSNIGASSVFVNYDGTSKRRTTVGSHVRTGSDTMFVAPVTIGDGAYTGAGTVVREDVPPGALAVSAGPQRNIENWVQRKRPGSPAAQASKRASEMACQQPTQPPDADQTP
# protocol_notes: inhibition of mycobacterial GlmU enzyme – biochemical, glucosamine-1-phosphate acetyltransferase (AID 1376);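 further: 0% = complete reaction with vehicle and 100% = reaction without substrate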
# test_settings: M. tuberculosis GlmU acetyltransferase enzyme assay; hits give high values;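 tested at 30 µM in the primary screen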
The whole screen tested about 220,000 compounds, of which about 530 (0.24%) were called active. This excerpt belongs to a sample that is enriched for actives. Measured potencies and affinities stand elsewhere.
Number only, in %; omit the unit.

Example results:
molecule | value_type | output_unit | obs_value
CC(=O)N1CCCSC1=Nc1ccccc1 | inhibition | % | 1.84
Cc1onc(-c2ccccc2Cl)c1C(=O)N1CCN=C1SCc1cccnc1 | inhibition | % | 27.2
O=C1CC(c2ccccc2)Cc2nc3nc(C(F)(F)F)nn3cc21 (stereo unspecified) | inhibition | % | 2.78
CCSC1=NCCN1C(=O)c1c(-c2ccccc2Cl)noc1C | inhibition | % | 4.4
COc1cc(/C=N/Nc2nc3ccccc3s2)cc([N+](=O)[O-])c1O | inhibition | % | 13.2

Next up:
query: Return inhibition for the following molecule: CSC1=NCCN1C(=O)c1c(-c2ccccc2Cl)noc1C
result: -1.36
